# Tested on: HOP-62 NSCLC
# Experimental protocol: NCI tumour cell line growth inhibition, 48 h; in the data active = GI50 below about 0.43 µM; inactive = the rest
Write down the outcome that applies. Available outcomes: active, inactive

COc1ccc(-c2cc(-c3ccc(OC)cc3)nc(NCCCNc3ccnc4cc(Cl)ccc34)n2)cc1	inactive
COc1ccc(CNCCCN2C(=O)c3ccc4c5c(ccc(c35)C2=O)C(=O)N(CCCNCc2ccc(OC)c(OC)c2OC)C4=O)c(OC)c1OC	active
O=C(Nc1cccc(C(F)(F)F)c1)c1ccc(NC2=C(Cl)C(=O)N(Cc3ccccc3)C2=O)cc1	inactive

// query Write down the call the test reported for this compound. Item: O=c1cc(-c2ccccc2)oc2c1ccc1ccccc12
// result inactive

// query Subsequent entry: COc1cc(NS(C)(=O)=O)ccc1Cc1c2ccccc2nc2ccccc12
// result active

// query Subsequent entry: Cc1c[nH]c(=O)n(Cc2nnc(CCC(=O)c3nc4ccccc4[nH]3)o2)c1=O
// result inactive

// query Subsequent entry: CC[C@H]1CCC/C=C/[C@@H]2C[C@H](O)C[C@H]2[C@H](O)/C=C/C(=O)O1
// result active

====

Provide the recorded GI50 for the entries that follow.
# System: HS 578T breast
# Experimental protocol: NCI tumour cell line growth inhibition, 48 h

I need GI50 for every entry listed below, if you could help.
1. CCN(CCO)CCCC(C)Nc1ccnc2cc(Cl)ccc12 (configuration not stated)
2. CCc1cccc(NC(=O)Nc2ccc(Oc3ccc4nc(NC(=O)OC)[nH]c4c3)cc2)c1
3. CC1(C)CCc2c(c(N=Nc3ccccc3F)c3ccccc3c2O)O1
4. CC(=O)Nc1ccc(OC(C)=O)cc1
5. Cc1ccc2[nH]c(C(=O)NN3C(=O)C(C)SC34CCC(C)CC4)c(-c3ccccc3)c2c1 (configuration not stated)

// result
1: > 100000 nM; 2: 1410 nM; 3: 28600 nM; 4: < 16.6 nM; 5: 41800 nM

====

# System: ACHN renal
# Experimental protocol: NCI tumour cell line growth inhibition, 48 h; in the data active = GI50 below about 0.43 µM; inactive = the rest
Write down the outcome that applies. Available outcomes: active, inactive

Check out these entries, answers already filled in.
COc1ccc(C2=NN(C(C)=O)C(c3ccc(Oc4ccnc5cc(Cl)ccc45)c(OC)c3)C2)cc1 (centres undefined)	inactive
O=C(Nc1ccccc1Cl)c1ccc(NC2=C(Cl)C(=O)N(C3CCCCC3)C2=O)cc1	inactive
FC(F)(F)c1cc(NC(=S)N2c3ccccc3-n3cccc3C2c2cccnc2)cc(C(F)(F)F)c1 (centres undefined)	inactive
C/C(CC(C)(C)N1CC1)=N\NC(=O)Nc1cccc2ccccc12	inactive

// query Write down the call the test reported for this compound. Item: COc1ccc(-c2cc(-c3ccc(OC)cc3)nc(NCCCNc3ccnc4cc(Cl)ccc34)n2)cc1
// result inactive

// query Subsequent entry: COc1cc2c3c(n(CCCn4cncn4)c(=O)c2cc1OC)-c1cc2c(cc1C3=O)OCO2
// result active

// query Subsequent entry: COc1ccc2nc3c(cc2c1)C(=O)CC(c1ccccc1)C3 (centres undefined)
// result inactive

// query Subsequent entry: COC(=O)C1=C(C(=O)ON)[C@@H]2C=C[C@@]1([C@@H](Cc1ccccc1)Nc1ccccc1)O2
// result inactive

// query Subsequent entry: CCN(CC)CCn1c(=O)c2cc(OC)c(OC)cc2c2ccc3cc4c(cc3c21)OCO4
// result active

====

# System: CCRF-CEM leukemia
# Experimental protocol: NCI tumour cell line growth inhibition, 48 h
Measurement kind: TGI

Some solved cases for reference:
O=[N+]([O-])c1cc(I)cc(/C=N/NS(=O)(=O)c2ccc(Cl)cc2)c1O	58.5 µM
O=C1NC(=O)C(C(c2ccc([N+](=O)[O-])cc2)C2C(=O)NC(=O)NC2=O)C(=O)N1	> 100 µM
O=S(=O)(O)c1cc(S(=O)(=O)O)c2c(N=Nc3ccc(S(=O)(=O)O)c4ccccc34)c(O)ccc2c1	> 100 µM
O=C(Nc1cccc(C(F)(F)F)c1)c1ccc(NC2=C(Cl)C(=O)N(Cc3ccccc3)C2=O)cc1	> 100 µM
Oc1c(Cl)c(Cl)c(Cl)c(Cl)c1Cl	48.3 µM

I need TGI for every entry listed below, if you could help.
1. C#CC(C)(C)OCCCCOc1cc(O)c2c(=O)c3ccccc3n(C)c2c1
2. CCOC(=O)/C(=C\c1cn(C(C)=O)c2ccccc12)P(C)(=O)OCC (stereo not given)
3. COC(=O)[C@@H]1C[C@]2(Br)c3ccccc3N(S(=O)(=O)c3ccccc3)[C@@H]2N1C(=O)OC
4. COC(=O)/C=C\C(C#N)(C#N)N=Cc1cccs1

// result
1. > 100 µM
2. > 100 µM
3. > 100 µM
4. 3.58 µM

// query Query for CCRF-CEM leukemia: what TGI does the record show for CC1SC2=NC3=C(c4ccccc4C3=O)C(c3ccccc3Cl)N2C1=O (stereo not given) ?
// result > 100 µM

====

# Tested on: MOLT-4 leukemia
# Experimental protocol: NCI tumour cell line growth inhibition, 48 h
Provide the recorded TGI for the entries that follow.

Some solved cases for reference:
Nc1ccn(CCOC(c2ccccc2)P(=O)(O)O)c(=O)n1 (configuration not stated)	> 100 µM
CCCCc1n(Cc2ccc3ccccc3n2)cc[n+]1Cc1ccc2ccccc2n1	11 µM

I need TGI for every entry listed below, if you could help.
1. CN1c2c(nc(N)[nH]c2=O)NCC1CCNc1ccc(C(=O)NC(CCC(=O)O)C(=O)O)cc1 (configuration not stated)
2. O=C(CC1(O)C(=O)Nc2ccc([N+](=O)[O-])cc21)c1ccncc1 (configuration not stated)
3. COc1cc2c(/C=C3/C(=O)Nc4ccc(O)cc43)c(Cl)n(Cc3cc(OC)c(OC)c(OC)c3)c2cc1C
4. COc1ccc(C2=NN(C(C)=O)C(c3ccc(Oc4ccnc5cc(Cl)ccc45)c(OC)c3)C2)cc1 (configuration not stated)
5. O=C(C=Nc1ccccc1S)c1ccco1
6. c1cc(C2=NCCO2)c2ccsc2c1
7. O=C(CC1(O)C(=O)Nc2ccccc21)c1ccc(Cl)cc1Cl (configuration not stated)
8. COc1ccc(C(=O)c2nc3ccccc3nc2N2CCN(c3ccccc3)CC2)cc1OC

// result
1: 2650 µM; 2: 70.1 µM; 3: > 21.9 µM; 4: > 100 µM; 5: 27.5 µM; 6: > 100 µM; 7: > 100 µM; 8: > 100 µM

I need TGI for every entry listed below, if you could help.
1. CC(=O)OC12CC[N+]3(C)CCCCC3C1=Nc1ccccc12 (configuration not stated)
2. C=CCc1cccc2cc(C(=O)Nc3ccc(C)cc3)c(=N)oc12
3. CC(C)C1=CC2=CC[C@@H]3[C@](C)(CCC[C@@]3(C)C(=O)O)[C@H]2CC1
4. Nc1nc(SCCNC(=O)CCc2ccc(O)c(I)c2)nc2c1ncn2C1OC(CO)C(O)C1O (configuration not stated)
5. COc1ccc(-c2cc(=O)c3cc(C)c(C)c(C(=O)O)c3o2)cc1

// result
["> 100 µM", "> 100 µM", "> 75.7 µM", "> 100 µM", "> 100 µM"]

I need TGI for every entry listed below, if you could help.
1. COn1oc(=O)c2ccccc21
2. O=C(O)/C=C/c1ccc(OS(=O)(=O)O)cc1
3. Nc1ncnc2c1ncn2[C@@H]1O[C@H](COP(=O)(O)OP(=O)(O)OC[C@H]2O[C@@H](OCCCO)[C@H](O)[C@@H]2O)[C@@H](O)[C@H]1O
4. CC(C)(CCl)NC(=O)c1cccc(C(=O)NC(C)(C)CCl)n1
5. Cc1ccc2nc(CN(CCO)CCO)cc(=O)n2c1
6. CC1(O)C2(c3ccccc3)CCC[N+]1(C)CC2 (configuration not stated)
7. CC[C@H]1CCC/C=C/[C@@H]2C[C@H](O)C[C@H]2[C@H](O)/C=C/C(=O)O1
8. CC1(C)N=c2cc3c(cc2N1c1ccc(Cl)cc1)=Nc1ccccc1N3c1ccc(Cl)cc1

// result
1: > 100 µM; 2: > 100 µM; 3: > 100 µM; 4: > 100 µM; 5: > 100 µM; 6: > 100 µM; 7: > 100 µM; 8: 4.04 µM

I need TGI for every entry listed below, if you could help.
1. O=C(Nc1ccccc1Cl)c1ccc(NC2=C(Cl)C(=O)N(C3CCCCC3)C2=O)cc1
2. COCN1C(=N)C(C(=O)OC(C)(C)C)=C2C=C(O)C=CC21C (configuration not stated)

// result
1: 20.4 µM; 2: > 100 µM

I need TGI for every entry listed below, if you could help.
1. CC(C)=NOC(=O)OC[C@H]1O[C@@H](n2cnc3c(N)ncnc32)C(O)C1O (some centres not stated)
2. COc1cc2c(cc1O)c(=O)n(CCN(C)C)c1c3cc4c(cc3ncc21)OCO4
3. CC1SC2=NC3=C(c4ccccc4C3=O)C(c3ccccc3Cl)N2C1=O (configuration not stated)
4. Cc1ccc(/C=N/NS(=O)(=O)c2ccccc2)cc1C
5. CC[C@@]1(O)C[C@H](OC2CC(N(C)C)C(OC3CC(O)C(OC4CCC(=O)C(C)O4)C(C)O3)C(C)O2)c2c(cc3c(c2O)C(=O)c2c(O)cccc2C3=O)C1C(=O)OC (some centres not stated)
6. O=C1CCCCN1
7. CN/N=C(\C(=O)Nc1ccc(C(F)(F)F)cc1[N+](=O)[O-])C(c1cnc2ccc([N+](=O)[O-])cc2n1)[N+](=O)[O-] (configuration not stated)
8. O=S1(=O)c2cc(S(=O)(=O)n3ccnc3)ccc2NC2=NCCCN21

// result
["> 100 µM", "0.0271 µM", "> 100 µM", "> 100 µM", "0.655 µM", "> 1120 µM", "> 100 µM", "> 100 µM"]

I need TGI for every entry listed below, if you could help.
1. CC(C)(C)OC(=O)NCCC1CNc2ccccc21 (configuration not stated)
2. CCOc1cc(C2SCC(=O)N2c2ccc3c(c2)Oc2c(Cl)c4c(c(Cl)c2=N3)Oc2cc(N3C(=O)CSC3c3ccc(O)c(OCC)c3)ccc2N=4)ccc1O (configuration not stated)
3. CS(=O)(=O)NNS(=O)(=O)c1ccc(F)cc1
4. COc1ccc2c(c1)C(=O)c1c-2c(N2CCN(C(=O)CCNCCNCCN)CC2)nc2ccccc12
5. CCCCc1nc(C)oc1C(C)C
6. CN(/N=C/c1ccccc1O)c1ccc2ccccc2n1
7. COc1cc(NC(C)=O)ccc1C(=O)N/N=C/c1ccco1

// result
1. > 100 µM
2. > 100 µM
3. > 100 µM
4. 2.18 µM
5. > 100 µM
6. 62.6 µM
7. > 100 µM

I need TGI for every entry listed below, if you could help.
1. N#Cc1ccc(OCCSCCCCCCCCCCSCCOc2ccc(C#N)cc2)cc1
2. COC(=O)/C=C\C(C#N)(C#N)N=Cc1cccs1

// result
["> 100 µM", "> 24.5 µM"]

Origin of values: PubChem BioAssay (NCI)
